Tested on: Aspergillus clavatus
Assay: Antifungal activity against Aspergillus clavatus MTCC 323 after overnight incubation by broth microdilution method
Format: functional
Quantity Kind: MIC99 (µg/mL)
Field: numeric (µg/mL). Do not append units.

# annotated cases, reported MIC99 shown
Chemical String | MIC99, µg/mL
COc1ccc2nc(Nn3c(-c4ccc(Cl)cc4)nnc3-c3cccnc3)sc2c1 | 500
Cc1ccc2nc(Nn3c(-c4ccc(Cl)cc4)nnc3-c3cccnc3)sc2c1 | 1000

Inquiry: Need MIC99, item `Clc1ccc(-c2nnc(-c3cccnc3)o2)cc1`
Reply text: 1000

====

Assay: Cytotoxicity against Homo sapiens (human) MT4 cells after 5 days by MTT assay
Format: cell-based
Quantity Kind: CC50 at 120 h (µg/mL)
Field: numeric (µg/mL). Do not append units.

Chemical String | Quantity Kind | Numeric Readout
O=[N+]([O-])c1ccc(-c2nnc(-c3cccnc3)n2Nc2nc3ccc([N+](=O)[O-])cc3s2)cc1 | CC50 at 120 h | 50.8
Clc1ccc(-c2nnc(-c3cccnc3)n2Nc2nc3ccc(Cl)cc3s2)cc1 | CC50 at 120 h | 54.3
COc1ccc2nc(NN)sc2c1 | CC50 at 120 h | 14.8

Inquiry: Need CC50 at 120 h, item `NNc1nc2cc(Cl)c(Cl)cc2s1`
Reply text: 80

Inquiry: Same question, `O=[N+]([O-])c1ccc(-c2nnc(-c3cccnc3)n2Nc2nc3ccc(Cl)cc3s2)cc1` this time
Reply text: 53.7

Inquiry: Same question, `O=[N+]([O-])c1ccc(-c2nnc(-c3cccnc3)n2Nc2nc3cc(Cl)c(Cl)cc3s2)cc1` this time
Reply text: 68.7

Inquiry: Same question, `Cc1ccc2nc(Nn3c(-c4ccc(Cl)cc4)nnc3-c3cccnc3)sc2c1` this time
Reply text: 75.5

Inquiry: Same question, `Cc1cccc2sc(NN)nc12` this time
Reply text: 9.8

Inquiry: Same question, `Clc1ccc(-c2nnc(-c3cccnc3)n2Nc2nc3cc(Cl)c(Cl)cc3s2)cc1` this time
Reply text: 52.1

Inquiry: Same question, `Clc1ccc(-c2nnc(-c3cccnc3)o2)cc1` this time
Reply text: 4.49
